Assay: Oral pharmacokinetics of digoxin with and without BM pre-treatment
Assay type: in vivo, male Sprague-Dawley rat
Settings: male, Sprague-Dawley, rat, plasma, po, 0.2 mg/kg, BM pretreated rats (31 mg/kg/day 7 days); digoxin 0.2 mg/kg oral 24 h after last BM
observable: Cmax (ng/mL)
Write down the numeric answer in ng/mL and omit the unit.

**Query** Supply reported Cmax belonging to this molecule: `C[C@H]1O[C@@H](O[C@H]2[C@@H](O)C[C@H](O[C@H]3[C@@H](O)C[C@H](O[C@H]4CC[C@@]5(C)[C@H](CC[C@@H]6[C@@H]5C[C@@H](O)[C@]5(C)[C@@H](C7=CC(=O)OC7)CC[C@]65O)C4)O[C@@H]3C)O[C@@H]2C)C[C@H](O)[C@@H]1O`
**Result** 5.28
